target: TRPV3 (hTRPV3) (Homo sapiens, UniProt Q8NET8); test: cryo-EM structure; type: cell-based
Sequence (Q8NET8 whole entry): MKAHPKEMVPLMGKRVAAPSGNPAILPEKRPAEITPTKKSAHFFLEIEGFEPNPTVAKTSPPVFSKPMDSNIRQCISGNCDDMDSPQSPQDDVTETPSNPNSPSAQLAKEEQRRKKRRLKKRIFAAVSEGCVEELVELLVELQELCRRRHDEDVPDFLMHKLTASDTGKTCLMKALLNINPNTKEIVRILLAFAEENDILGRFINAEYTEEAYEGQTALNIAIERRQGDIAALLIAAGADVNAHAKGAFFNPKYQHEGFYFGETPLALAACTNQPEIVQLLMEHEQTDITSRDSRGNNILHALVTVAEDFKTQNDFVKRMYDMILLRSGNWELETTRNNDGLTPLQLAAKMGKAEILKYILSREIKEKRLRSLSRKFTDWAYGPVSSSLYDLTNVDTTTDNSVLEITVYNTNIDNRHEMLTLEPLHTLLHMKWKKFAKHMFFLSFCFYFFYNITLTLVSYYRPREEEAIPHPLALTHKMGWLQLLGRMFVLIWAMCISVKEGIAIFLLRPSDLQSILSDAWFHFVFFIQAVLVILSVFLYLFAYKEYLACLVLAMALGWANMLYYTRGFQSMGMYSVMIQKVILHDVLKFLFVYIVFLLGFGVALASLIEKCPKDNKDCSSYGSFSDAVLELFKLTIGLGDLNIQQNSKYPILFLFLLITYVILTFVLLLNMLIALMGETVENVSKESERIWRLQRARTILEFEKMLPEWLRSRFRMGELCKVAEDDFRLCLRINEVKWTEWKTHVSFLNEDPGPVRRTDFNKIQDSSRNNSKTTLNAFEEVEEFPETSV
metric name: EC50 (mM)
// note: answer is a bare numeric in mM

Input C=CC(C)(O)CCC=C(C)C (stereo not shown) [linalool] . Output EC50: 6.19

src = paper PMC11923102
